biological target: Botulinum neurotoxin type A (Clostridium botulinum); assay: BoNT/A light chain protease inhibitors, biochemical, multiplex microsphere flow cytometry, validation set (AID 588460); conditions: at 10 µM, hits give high values
The source made the active and inactive calls. No rule for the calls is given here.
Reported values of inhibition for individual entries

| COMPOUND | inhibition |
| --- | --- |
| CCOC(=O)C1C2C=CC3(CN(c4ccc(Cl)c(F)c4)C(=O)C13)O2 (stereo not drawn) | -2.3% (inactive) |
| O=C(O)C1Cc2ccccc2CN1S(=O)(=O)c1ccccc1 (stereo not drawn) | 0.6% (inactive) |
| O=C(O)C[C@@H](O)C(=O)O | -0.4% (inactive) |
| CCOC(=O)n1c(=O)oc2ccccc21 | 0.5% (inactive) |
| C#CCN(C)Cc1ccccc1 | -0.5% (inactive) |
| CC1=CC(=O)c2ccccc2C1=O | -0.1% (inactive) |
| OC(CCN1CCCC1)(c1ccccc1)C1CCCCC1 (stereo not drawn) | -0.7% (inactive) |
| CCCCN1C[C@H](O)[C@@H](O)[C@H](O)[C@H]1CO | -1% (inactive) |
| O=Cc1cn(Cc2ccc(F)cc2)c2ccccc12 | 3.1% (inactive) |
| COc1cc(C(=S)N(C)C)ccc1O | -0.9% (inactive) |
| CC(=O)[C@H]1[C@H](C#N)C[C@H]2[C@@H]3CC=C4C[C@@H](O)CC[C@]4(C)[C@H]3CC[C@@]21C | 1.4% (inactive) |
| C#C[C@]1(O)CC[C@H]2[C@@H]3CCC4=C(CCC(=O)C4)[C@H]3CC[C@@]21C | 0.1% (inactive) |
| O=C(c1ccccc1F)c1cc2c(cc1[N+](=O)[O-])OCCO2 | -0.4% (inactive) |
| COc1ccc2[nH]cc(C3N4CC5(C)CN3CC(C)(C4)C5=O)c2c1 (stereo not drawn) | -0.2% (inactive) |
| COc1ccc2c(=O)c(-c3cnn(-c4ccccc4)c3)c(C)oc2c1 | 0.9% (inactive) |
| COc1cc(CNc2ccc(C)c(C)c2)cc(OC)c1OC | 0.5% (inactive) |
| COc1ccc2nc(C)cc(Nc3ccccc3O)c2c1 | 1% (inactive) |
| COc1ccc(C=NCC2COc3ccccc3O2)cc1OC (stereo not drawn) | -3.3% (inactive) |
| Cc1cccc(-n2c(Cc3ccccc3)n[nH]c2=S)c1 | -0.5% (inactive) |
| CCOc1cc2c3c(c1)C(C)=CC(C)(C)N3C(=O)C2=O | -2.5% (inactive) |
| Cc1cc(C)cc(Nc2nc3c([nH]2)c(=O)n(C)c(=O)n3C)c1 | 0.5% (inactive) |
| C#C[C@]1(O)CC[C@H]2[C@@H]3CCC4=CC(=O)CC[C@@H]4[C@H]3CC[C@@]21CC | -1.3% (inactive) |
| COCCn1c(/C=C/c2ccccc2)nc2ccccc21 | 0% (inactive) |
| COc1ccc(O)c(N)c1 | -3.6% (inactive) |
| CC1=NN(c2ccccc2)C(=O)C1 | -3% (inactive) |
| NC(N)=N/N=C/c1cccc(Cl)c1Cl | 1.3% (inactive) |
| CCN1CC2(COC(=O)c3ccccc3N)CCC(OC)C34C5CC6C(OC)CC(O)(C5C6OC)C(O)(C(OC)C23)C14 (stereo not drawn) | 0.1% (inactive) |
| CCc1ccc(/C=C2\SC(=S)N(CCC(=O)N3CCN(C)CC3)C2=O)cc1 | 2.1% (inactive) |
| O=C(CCCCC(=O)NC1CCCC1)NC1CCCC1 | 0.2% (inactive) |
| CC(=O)Oc1ccc2c(=O)c(Oc3ccccc3[N+](=O)[O-])coc2c1 | -1.2% (inactive) |
| C/C(NC(=O)c1cccs1)=C1\C(=O)C[C@@H]2[C@H]1C2(C)C | 0.5% (inactive) |
| CC(=O)c1c(C)c(C)c2n1CCn1c(C)ccc1-2 | -0.1% (inactive) |
| CN1CCN(CC/C=C2/c3ccccc3Sc3ccc(S(=O)(=O)N(C)C)cc32)CC1 | 0.9% (inactive) |
| COc1cccc(OC)c1C(=O)Nc1nc2ccc([N+](=O)[O-])cc2s1 | 3.3% (inactive) |
| COc1cc(C2NCCc3c2[nH]c2ccccc32)ccc1OC(C)C (stereo not drawn) | -0.5% (inactive) |
| COc1cc2c3c(c1)C(C)CC(C)(C)N3C(=O)C2=O (stereo not drawn) | -1.3% (inactive) |
| CC(=O)Oc1ccc(C(=O)O)cc1OC(C)=O | 0.4% (inactive) |
| Cc1ccc2c(c1)C(CCN)C(=O)N2Cc1ccccc1 (stereo not drawn) | 0.7% (inactive) |
| c1ccc2[nH]c(-c3cscn3)nc2c1 | 0.1% (inactive) |
| C=C(C)COc1ccc(-c2nc(N)ncc2-c2ccc(OC)cc2)c(O)c1 | 1.4% (inactive) |
| CCC[C@@H]1C[C@@H](C(=O)N[C@H]([C@@H](C)O)[C@H]2O[C@H](SC)[C@H](O)[C@@H](O)C2O)N(C)C1 (stereo partly drawn) | -1.6% (inactive) |
| c1ccc2c3c([nH]c2c1)CNCC3 | 0.1% (inactive) |
| Cc1ccccc1OCCSc1nc2ncnc(N)c2[nH]1 | -1% (inactive) |
| Cc1ccc(S(=O)(=O)NC(=O)Nc2cc(C)ccc2F)cc1 | -0.1% (inactive) |
| c1coc(-c2nnc3n2C2(CCCC2)Cc2ccccc2-3)c1 | -1.4% (inactive) |
| Cc1cc(C)c(NC(=O)NC(=O)C(Cl)(Cl)Cl)c(C)c1 | 0.1% (inactive) |
| O=C(/C=C/Sc1ccccc1)c1ccccc1 | -0.8% (inactive) |
| CCCn1c(=O)c2[nH]c(C3CCCC3)nc2n(CCC)c1=O | 0.8% (inactive) |

Attribution: PubChem BioAssay
